# Test system: NCI-H460
# Test Summary: NCI-60 SRB screen
# Run Parameters: Homo sapiens, NCI-H460, 48 h, read-out: LC50
For each record, write down the corresponding CC50.
Answers are plain numbers, in µM.

See these solved cases before continuing.
O=C(O)CCCN1C(=O)/C(=C/C=C/c2ccc([N+](=O)[O-])o2)SC1=S [13b]: 4.94
O=C(O)C(c1ccccc1)N1C(=O)/C(=C/C=C/c2ccc([N+](=O)[O-])o2)SC1=S (stereo not shown): 73.6
O=C(O)CCCCCN1C(=O)/C(=C/C=C/c2ccc([N+](=O)[O-])o2)SC1=S [14b]: 5.54

I have 4 compounds here; please give me CC50 for each one.
1. CC(C)C(C(=O)O)N1C(=O)/C(=C/C=C/c2ccc([N+](=O)[O-])o2)SC1=S (stereo not shown)
2. CCCCC(C(=O)O)N1C(=O)/C(=C/C=C/c2ccc([N+](=O)[O-])o2)SC1=S (stereo not shown)
3. CCCC(C(=O)O)N1C(=O)/C(=C/C=C/c2ccc([N+](=O)[O-])o2)SC1=S (stereo not shown)
4. O=C(O)CCN1C(=O)/C(=C/C=C/c2ccc([N+](=O)[O-])o2)SC1=S [12b]

**Result**
1. 34.5
2. 69.6
3. 6.23
4. 6.46
